Reference source: patent US6458552B1

Biological target: T1, KAS-1 FRET peptide Z-RGVVNASSRLAK-X (not fully specified)
T1 chain: RGVVNASSRLAK
measured.attribute: Relative proteolytic activity

soluble recombinant human ADAM8, active (processed) form (protein) RYVELYVVVDNAEFQMLGSEAAVRHRVLEVVNHVDKLYQKLNFRVVLVGLEIWNSQDRFHVSPDPSVTLENLLTWQARQRTRRHLHDNVQLITGVDFTGTTVGFARVSAMCSHSSGAVNQDHSKNPVGVACTMAHEMGHNLGMDHDENVQGCRCQERFEAGRCIMAGSIGSSFPRMFSDCSQAYLESFLERPQSVCLANAP :: ***
soluble recombinant human MDC-L, active form (protein) VQEHEKYIEYYLVLDNGEFKRYNENQDEIRKRVFEMANYVNMLYKKLNTHVALVGMEIWTDKDKIKITPNASFTLENFSKWRGSVLSRRKRHDIAQLITATELAGTTVGLAFMSTMCSPYSVGVVQDHSDNLLRVAGTMAHEMGHNFGMFHDDYSCKCPSTICVMDKALSFYIPTDFSSCSRLSYDKFFEDKLSNCLFNAP :: ***
recombinant ADAM17 (protein) RADPDPMKNTCKLLVVADHRFYRYMGRGEESTTTNYLIELIDRVDDIYRNTSWDNAGFKGYGIQIEQIRILKSPQEVKPGEKHYNMAKSYPNEEKDAWDVKMLLEQFSFDIAEEASKVCLAHLFTYQDFDMGTLGLAYVGSPRANSHGGVCPKAYYSPVGKKNIYLNSGLTSTKNYGKTILTKEADLVTTHELGHNFGAEHDPDGLAECAPNEDQGGKYVMYPIAVSGDHENNKMFSNCSKQSIYKTIESKAQECFQERSNKV :: (-)
